- study.system: N-acetyllactosaminide alpha-1,3-galactosyltransferase (Sus scrofa, UniProt P50127)
- Sequence (P50127 whole entry): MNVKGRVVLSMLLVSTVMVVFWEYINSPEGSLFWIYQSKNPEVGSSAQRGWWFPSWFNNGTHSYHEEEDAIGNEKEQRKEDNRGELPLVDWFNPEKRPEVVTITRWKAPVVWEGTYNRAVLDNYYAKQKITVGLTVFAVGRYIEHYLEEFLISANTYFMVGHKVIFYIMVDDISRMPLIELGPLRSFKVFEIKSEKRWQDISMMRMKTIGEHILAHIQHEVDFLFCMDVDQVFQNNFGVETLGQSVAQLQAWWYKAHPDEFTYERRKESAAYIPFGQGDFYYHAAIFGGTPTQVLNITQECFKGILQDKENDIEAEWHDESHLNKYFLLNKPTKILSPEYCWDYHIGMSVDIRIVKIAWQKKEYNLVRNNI
- experimental.details: Compound was tested for the inhibition porcine alpha -1,3 -galactosyl transferase (alpha-1,3-GalT) at 0.2 mM concentration
outcome.measure: pKi
Numbers only, as −log10 of the molar value.

Short answer for COC1OC(CO)C(OC2OC(CO)C(O)C(N)C2O)C(O)C1NC(C)=O (stereo unspecified) : pKi was 3.98

----------
- study.system: N-acetyllactosaminide alpha-1,3-galactosyltransferase (Sus scrofa, UniProt P50127)
- experimental.details: Compound was tested for the inhibition porcine alpha -1,3 -galactosyl transferase (alpha-1,3-GalT)
outcome.measure: pKi
Answers are plain numbers, as −log10 of the molar value.

Short answer for `CC(=O)N[C@@H]1[C@H](Oc2ccc3cc(Br)ccc3c2)O[C@@H](CO)[C@@H](O[C@@H]2O[C@@H](CO)[C@H](O)[C@H](O)[C@@H]2O)[C@@H]1O` : pKi was 5.04
